- tested-on: hMFI2-ECD-His (extracellular domain of human MFI2, residues G20-C709, with Histidine tag) (human) (UniProt P08582)
- Sequence (P08582 20-709 limits assumed, form in doubt): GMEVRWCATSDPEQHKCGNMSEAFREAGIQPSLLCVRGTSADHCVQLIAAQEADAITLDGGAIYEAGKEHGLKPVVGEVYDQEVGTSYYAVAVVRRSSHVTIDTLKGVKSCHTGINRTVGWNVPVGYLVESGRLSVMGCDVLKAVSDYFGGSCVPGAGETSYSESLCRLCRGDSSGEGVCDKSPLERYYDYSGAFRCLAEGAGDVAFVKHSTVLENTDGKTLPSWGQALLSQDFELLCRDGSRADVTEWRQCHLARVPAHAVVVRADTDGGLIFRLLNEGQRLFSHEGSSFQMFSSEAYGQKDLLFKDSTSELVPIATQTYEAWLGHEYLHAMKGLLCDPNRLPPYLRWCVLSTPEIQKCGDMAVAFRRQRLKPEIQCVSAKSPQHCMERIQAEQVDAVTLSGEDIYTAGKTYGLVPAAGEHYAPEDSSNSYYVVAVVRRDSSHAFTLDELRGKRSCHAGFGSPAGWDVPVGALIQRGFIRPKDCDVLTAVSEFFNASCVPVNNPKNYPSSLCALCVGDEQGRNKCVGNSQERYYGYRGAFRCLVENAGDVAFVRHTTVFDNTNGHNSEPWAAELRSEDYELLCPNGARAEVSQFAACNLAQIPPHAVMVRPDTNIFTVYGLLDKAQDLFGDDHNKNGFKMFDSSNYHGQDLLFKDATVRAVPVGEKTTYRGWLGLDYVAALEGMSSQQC
- procedure-details: SPR (BIAcore 2000): antibody captured, monomeric MFI2-His flowed, 1:1 Langmuir fit; species not given, taken as hMFI2-His
recorded-endpoint: Kd (nM)
Write the value in nM as a bare number.

Solved cases (3 shown):
SC57.5 (antibody, V domains shown) VH: EVQLQQSGPELVKPGASVKISCKASGYSFTDYYLHWVKQSHVKSLEWIGRINPYNGATSYNQIFKDKASLTVDKSSSTAYMDLHSLTSEDSAVYYCARGGDYDFPWYWGQGTTLTVSP VL: DIVMTQSHKFMSTSVGDRVSITCKASQDVYAAVAWYHQKPGQSPKLLIYWASTRHAGVPDRFTGSGSGTDYTLTISSVQAEDLALYYCQQHYRTPWTFGGGTKLEIK
1.1
hSC57.5 (antibody, human IgG1, kappa, V domains shown) VH: EVQLVQSGAEVKKPGESLKISCKGSGYSFTDYYLHWVRQMPGKGLEWMGRINPYNGATSYNQIFKDQVTISADKSISTAYLQWSSLKASDTAMYYCARGGDYDFPWYWGQGTTVTVSS VL: DIQMTQSPSSLSASVGDRVTITCKASQDVYAAVAWYQQKPGKAPKLLIYWASTRHAGVPSRFSGSGSGTDFTLTISSLQPEDFATYYCQQHYRTPWTFGQGTKVEIKR
4.4
SC57.11 (antibody, V domains shown) VH: QVQLQQSGAELMKPGASVKISCKATGYTFSNYRIEWMKQRPGHGLEWIGEILPRTGNTNYNENFKGKATFTADTSSNTAYIQLSSLTSEDSAVYYCARDDGYYGRFAYWGQGTLVTVSA VL: DIQMTQTTSSLSASLGDRVTISCRASQDISSYLNWYQQKPDGTVKLLIYYTSRLHSGVPSRFSGSGSGTDYSLTINNLEQEDIATYFCQQGNTLPPTFGGGTKLEIK
3.2

Here's the next entry for you.
In: Quick check: Kd of SC57.46 (antibody, V domains shown) VH: QVQLKESGPGLVAPSQSLSITCTVSGFSLTSYGVHWVRQPPGKGLEWLGIIWAGGTTNYNSALMSRLSIRKDNSKSQVFLKMNSLQTDDTAMYYCARDRGYDGYFDYAVDYWGQGTSVTVSS VL: DIQMTQSPPSLSASVGETVTITCRTSENIYSYLTWYQQKQGKSPQLLVYNAKTLAEGVPSRFSGSGSGTQFSLKINSLQPEDFGSYYCQHHYGTPLTFGAGTKLELK ?
Out: 4.5
